Value source: PubChem BioAssay AID1159580

- protocol summary: chemical genetic growth profiling, strain panel (AID 1159580);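 also: tested at 20 µM; growth read once vehicle control cultures reached saturation at 30 °C; 1 = growth at the plate median or of vehicle wells; lower values mean less growth of the strain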
- details: S. cerevisiae deletion strains, growth OD, locus YDL192W, strain arf1, active compounds read low
Among all 5,500 compounds or so, about 2,000 (36%) were called active. Another 18% or so got no clear call; they are omitted. Some of the results follow.
Each record here notes measured normalized growth.
API note: the answer field is a bare number with no unit suffix.

molecule	normalized growth
NCC(O)CC(=O)O (stereo not given)	0.997

Tell me measured normalized growth for `N#Cc1c(Cl)cccc1Cl` please.
1.01

Tell me measured normalized growth for `CC1(C)S[C@@H]2[C@H](NC(=O)[C@@H](N)c3ccc(O)cc3)C(=O)N2[C@H]1C(=O)O` please.
1

Tell me measured normalized growth for CSCCC(N)C(=O)NC(CC(C)C)C(=O)NC(Cc1ccccc1)C(=O)O (stereo not given) please.
1

Tell me measured normalized growth for NC[C@H]1O[C@H](OC2[C@@H](N)C[C@@H](N)[C@H](O[C@H]3O[C@H](CO)[C@@H](O)[C@H](N)[C@H]3O)[C@H]2O)[C@H](O)[C@@H](O)[C@@H]1O (stereo not given in full) please.
0.98

Tell me measured normalized growth for `NC(N)=Nc1ccc(Cl)cc1` please.
1.01

Tell me measured normalized growth for `CN(C)CC[C@H](c1ccc(Cl)cc1)c1ccccn1` please.
1

Tell me measured normalized growth for CC1=C2C(O)C(=O)OC3CC4C(C)(C)C(=O)C=C[C@]4(C)C(CC1)[C@]23C (stereo not given in full) please.
1.02
